- Test system: CAKI-1 renal
- assay.comment: NCI-60 one-dose screen, 48 h (100 = growth as untreated, 0 = no growth, -100 = all killed)
- measurement.conditions: 10 µM unless noted
About 83,000 compounds went through this panel and 20% of them were active in at least one assay; those are over-represented in the sample as a whole. The source made the active and inactive calls. Rule for the calls: active = growth percent below 10; inactive = the rest.
measured.metric: growth

>>> result("COc1ccc2c(CCC(c3ccccc3)c3ccccc3)c3[n+](cc2c1OC)CCc1cc2c(cc1-3)OCO2")
"60.2% (inactive)"
>>> result("Cc1cc(C(O)CN(C)C)cc2c1ccc1cc(C(C)C)ccc12 (stereo not drawn)")
"8.02% (active)"
>>> result("CN1CC[C@@H](c2c(O)cc(O)c3c(=O)cc(-c4ccccc4Cl)oc23)[C@@H]1CO")
"5.86% (active)"
>>> result("COCc1c(-c2ccc(NC(=O)Nc3cc(C(F)(F)F)ccc3F)c(F)c2)c2c(N)ncnn2c1CN1CCOCC1")
"-11.4% (active)"
>>> result("O=C(NO)c1ccc(Cn2c(=O)n(-c3ccccc3F)c(=O)c3ccccc32)cc1")
"25% (inactive)"
>>> result("COCCOc1cnc2ccn([C@H](C)c3nnc4c(F)cc(-c5cnn(C)c5)cn34)c(=O)c2c1")
"65.2% (inactive)"
>>> result("CCOC(=O)C1=C(C)N=C2Sc3cccc(OC)c3N2[C@H]1c1ccccn1")
"89.2% (inactive)"
>>> result("Cc1cc(Nc2cc(N3CCN(C)CC3)nc(/C=C/c3ccccc3)n2)n[nH]1")
"-45.3% (active)"
>>> result("O=c1[nH]c([C@@H]2CCCN2)nc2c1oc1ccc(Cl)cc12")
"42.4% (inactive)"
>>> result("Fc1ccc(NCc2cn(-c3ccccc3)nc2-c2ccc(OCc3ccccc3)cc2)cc1Cl")
"82.9% (inactive)"
>>> result("CC(C)(C)c1cnc(CSc2cnc(NC(=O)C3CCNCC3)s2)o1")
"16.5% (inactive)"
>>> result("CCS(=O)(=O)N1CCN(c2ccc(Nc3ncc(C(N)=O)c(NC4CC4)n3)cc2)CC1")
"97.6% (inactive)"
>>> result("C=CC(=O)Nc1cccc(Oc2nc(Nc3ccc(N4CCN(C)CC4)cc3)nc3ccsc23)c1")
"-71.4% (active)"

====

- Test system: A549/ATCC NSCLC
- assay.comment: NCI-60 one-dose screen, 48 h
- measurement.conditions: 10 µM unless noted
- Experimental: Growth inhibition of the A549/ATCC human Non-Small Cell Lung tumor cell line is measured as a screen for anti-cancer activity. Cells are grown in 96 well plates and exposed to the test compound for 48 hours. Compounds are tested at a single concentration, which is 10^-5 M for most compounds. The reported endpoint is percent growth (GI% or GIPRCNT), where numbers from 0 - 100% represent growth inhibition, and numbers from -100% - 0 represent cell death. […]
Compounds without any hit were thinned out: in the full panel of roughly 83,000, 20% have a hit. Active and inactive are the calls of the source. How the source made its calls: active means growth percent below 10; inactive means the rest.
Labels: True for active, False for inactive

>>> answer_label("N#Cc1c(-c2ccc(C(F)(F)F)cc2)cc(NCC2CCS(=O)(=O)CC2)n2c1nc1ccccc12")
"False"
>>> answer_label("CC(C)[C@@H]1CC[C@]2(CO2)[C@@H]2C(=O)OCC(C(=O)O)=C[C@H]21")
"False"
>>> answer_label("COc1c(OCCCN2CCOCC2)ccc2c3n(c(=NC(=O)c4cnc(N)nc4)nc12)CCN3")
"True"
>>> answer_label("CCc1nc2ccc(Cc3ccc(C(=O)NO)cc3)cc2c(=O)n1CCc1ccccc1")
"True"
>>> answer_label("CN1CCN(c2nc(C3=C(c4c[nH]c5ccccc45)C(=O)NC3=O)c3ccccc3n2)CC1")
"False"
>>> answer_label("O=C(Cc1ccc(-c2ccc(OCCN3CCOCC3)cc2)cn1)NCc1ccccc1")
"True"
>>> answer_label("O=C(/C=C/c1ccc2c(c1)OCO2)c1c(O)c2ccccc2oc1=O")
"False"
>>> answer_label("COc1cc(-c2cc(-c3ccc(Nc4ccnc5cc(Cl)ccc45)cc3)nc(N3CCOCC3)n2)cc(OC)c1OC")
"True"
>>> answer_label("Cc1nc(Nc2n[nH]c3c2CN(C(=O)N[C@H](CN(C)C)c2ccccc2)C3(C)C)c2sccc2n1")
"True"
>>> answer_label("COc1ccc(C(=O)N2c3ccccc3Sc3ccccc32)c(F)c1")
"False"
>>> answer_label("COc1cc2c(Oc3ccc(NC(=O)C4(C(=O)Nc5ccc(F)cc5)CC4)cc3F)ccnc2cc1OCCCN1CCOCC1")
"True"
